Molecular target: T1, ^CDD_(MlnD) labeled with eGFPd
T1 chain: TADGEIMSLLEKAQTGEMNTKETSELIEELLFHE
Experiment: FRET or BRET; KD-FRET: sensitized-emission (three-channel) FRET microscopy of single living E. coli BW25993 cells (UvrA/UvrB: uvrA uvrB double deletion strain), donor eGFPd fusion from pFF838, acceptor mRFP fusion from pBBR6k, M9 medium, 37 °C; corrections to step 6; FRET efficiency against binned acceptor concentration fitted to a quadratic binding equation
Details: partners not purified
Ends that are not written are not given here.
property name: pKd
Remember the convention: pKd equals -log10 of concentration in molar.

The reported pKd of the binder MNEKTMQIEQIVKKVKECSLTPEEGLELIKSLGKT (domain or fragment, also: labeled with mRFP) [^NDD_(MlnE) labeled with mRFP] was 6.60
